Target: Rhesus monkey Claudine18.2 (Rhesus monkey) (UniProt F6YQY3)
Assay: FACS on CHOK1-rh18.2 cells
measurement label: FACS MFI
No unit in the answer, only the number.

Look up and report measured FACS MFI for this entry: Ab37 (antibody, V domains shown) VH: EVKLEESGGGLVQPGGSMKLSCVASGFTFSNYWMNWVRQYPEQGLEWVAQIRLNSDNYATHYAESVKGRFTISRDDSRSTVYLQMNNLRAEDTGIYYCTGGGEYWGQGTTLTVSS VL: DIVMTQSQKFMSTTIGDRVSITCKASQNVDTAVAWYQQKPGQSPKLLIYSASTRYTGVPDRFTGSGSGTDFTLTISNMQSEDLADYFCQQYISYQLTFGAGTKLELK 16700

Look up and report measured FACS MFI for this entry: Ab12 (antibody, V domains shown) VH: EVMLVESGGGLVKPGGSLKLSCAASGFTFSSYTMSWVRQTPEKRLEWVATIIGGYGNTYYADSVKGRFTISRDSAKNTLYLQMLSLRSEDTALYYCTRLGQTQRNAMDYWGQGTSVTVSS VL: DILMTQSPSSLSVSAGEKVTMSCKSSQSLLNSGNQRNYLAWYQQKPGQPPKLLIYGASTRESGVPDRFTGSGSGTDFTLTISSVQAEDLAVYYCQNDYYYPLTFGAGTKLELK 7610
